# target entity: T1, recombinant human BCMA, in house material (human, UniProt Q02223 4-53, limits assumed)
# T1 construct: also called Human in house BCMA; In house human BCMA
# T1 sequence (Q02223 4-53 limits assumed): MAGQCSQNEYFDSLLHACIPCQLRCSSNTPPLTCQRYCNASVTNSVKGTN
# assay remarks: ProteOn SPR run 1, antibody captured on Protein A, 25C
Below, each entry is listed with its recorded Kd.
observed property: Kd (nM)

• S307118G03 humanised H3L1 (antibody, human IgG1, kappa, V domains shown, Humanised, human IgG1 kappa) VH: QVQLVQSGAEVKKPGSSVKVSCKASGYTFTDYYMKWVRQAPGQGLEWIGEIYPNNGGITYNQKFKGRATLTVDKSTSTAYMELSSLRSEDTAVYYCANGYEFVYWGQGTLVTVSS VL: DIQMTQSPSSLSASVGDRVTITCSASQGISNYLNWYQQKPGKAPKLLIYYTSSLHSGVPSRFSGSGSGTDYTLTISSLQPEDFATYYCQQYSKLPWTFGQGTKLEIKR = 4.86
• CA8 humanised J0M1 (antibody, human IgG1, kappa, V domains shown, Humanised CA8, heavy chain J0 with light chain M1, human IgG1 kappa; also called CA8 J0M1) VH: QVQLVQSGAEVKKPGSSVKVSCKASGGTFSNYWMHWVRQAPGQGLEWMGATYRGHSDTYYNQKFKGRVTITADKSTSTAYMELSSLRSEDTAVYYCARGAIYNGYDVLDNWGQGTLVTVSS VL: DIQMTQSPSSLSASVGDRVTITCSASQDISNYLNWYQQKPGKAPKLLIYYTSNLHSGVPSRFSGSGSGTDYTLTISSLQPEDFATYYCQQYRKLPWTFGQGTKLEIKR = 0.373
• CA8 humanised J4M2 (antibody, human IgG1, kappa, V domains shown, Humanised CA8, heavy chain J4 with light chain M2, human IgG1 kappa; also called CA8 J4M2) VH: QVQLVQSGAEVKKPGSSVKVSCKGSGYTFTNYWMHWVRQAPGQGLEWIGATYRGHSDTYYNQKFKGRATLTADTSTSTAYMELSSLRSEDTAVYYCTRGAIYNGYDVLDNWGQGTLVTVSS VL: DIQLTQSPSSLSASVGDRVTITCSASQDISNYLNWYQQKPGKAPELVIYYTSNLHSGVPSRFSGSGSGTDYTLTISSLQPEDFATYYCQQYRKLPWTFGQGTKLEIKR = 0.281

The reported measurements were obtained from patent US20230137032A1.
